pIC50: −log10 of the molar value.
Would you kindly list pIC50 for each of these compounds?

Data request: Please report the measured pIC50 for `CC(=O)[C@H]1CC[C@H]2[C@@H]3CC[C@H]4C[C@@H](NS(C)(=O)=O)CC[C@]4(C)[C@H]3CC[C@]12C` tested on G6PD (Homo sapiens, UniProt P11413).
Sequence (P11413 whole entry): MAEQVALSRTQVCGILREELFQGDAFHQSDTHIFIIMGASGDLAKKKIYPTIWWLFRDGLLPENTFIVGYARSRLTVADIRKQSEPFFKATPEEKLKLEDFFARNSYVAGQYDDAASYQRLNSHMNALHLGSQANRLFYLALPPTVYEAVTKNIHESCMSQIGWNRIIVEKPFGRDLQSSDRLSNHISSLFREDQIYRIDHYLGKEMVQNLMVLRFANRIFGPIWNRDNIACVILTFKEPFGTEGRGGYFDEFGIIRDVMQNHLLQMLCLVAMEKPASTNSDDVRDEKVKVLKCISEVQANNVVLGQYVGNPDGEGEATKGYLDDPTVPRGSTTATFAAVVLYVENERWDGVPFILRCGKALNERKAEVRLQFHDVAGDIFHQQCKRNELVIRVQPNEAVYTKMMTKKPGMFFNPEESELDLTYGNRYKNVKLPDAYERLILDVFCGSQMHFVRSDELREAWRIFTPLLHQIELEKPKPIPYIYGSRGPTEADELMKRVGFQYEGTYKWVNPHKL
Data returned: 5.00 to 6.00

Data request: Please report the measured pIC50 for `CCNC(=O)N[C@H]1CC[C@@]2(C)[C@@H](CC[C@@H]3[C@@H]2CC[C@]2(C)C(=O)CC[C@@H]32)C1` tested on G6PD (Homo sapiens, UniProt P11413).
Data returned: 5.00 to 6.00

Data request: Please report the measured pIC50 for C[C@]12CC[C@H](O)C[C@@H]1CC[C@@H]1[C@@H]2CC[C@]2(C)[C@@H](C(=O)CO)CC[C@@H]12 [PD2124, (3β,5α)-3,21-Dihydroxypregnan-20-one] tested on G6PD (Homo sapiens, UniProt P11413).
Data returned: 5.00 to 6.00

Reference source: patent US11185552B2
